- procedure-summary: Acute toxicity
- condition-details: mouse, in vivo, ip; intraperitoneal administration to mice
Measured LD50 accompanies every entry in the list below.

[
  {
    "compound": "COC(=O)C1(C)Nc2c(O)cc3c(c2C1=O)CC(Cl)CN3C(=O)c1cc2cc(OC)c(OC)c(OC)c2[nH]1 (centres unmarked) [DC-89Al, duocarmycin Cl]",
    "LD50": "~1.17 mg/kg"
  }
]

Now for another entry.
Data request: Could you tell me which LD50 is on file for COC(=O)C1(C)NC2=C(C1=O)C13CC1CN(C(=O)c1cc4cc(OC)c(OC)c(OC)c4[nH]1)C3=CC2=O (centres unmarked) [DC-88A, duocarmycin A] ?
Data returned: ~0.94 mg/kg

Data provenance: patent US4923990A
